Biological target: MCH-2 (Homo sapiens, UniProt P55212)
Sequence (P55212 24-179 limits assumed): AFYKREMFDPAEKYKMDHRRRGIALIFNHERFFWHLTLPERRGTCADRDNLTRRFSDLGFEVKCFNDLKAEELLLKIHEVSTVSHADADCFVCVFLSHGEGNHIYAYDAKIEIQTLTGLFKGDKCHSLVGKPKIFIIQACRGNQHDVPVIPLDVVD
Sequence (P55212 194-293 limits assumed): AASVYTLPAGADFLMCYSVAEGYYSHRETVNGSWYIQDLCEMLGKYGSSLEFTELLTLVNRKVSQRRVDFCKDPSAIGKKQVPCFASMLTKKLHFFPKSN
Test: Dissociation constant Ki and irreversible rate constant k3 for irreversible inhibitors (Mch2)
Assay type: biochemical
Conditions: continuous assay 60 min, reaction initiated by adding enzyme to substrate-inhibitor mixture
pKi: −log10 of the molar value. Where a SMILES comes first, the peptide text is derived from it. The star is where a group is joined. Cbz = O=C(OCc1ccccc1)*; CH2F = FC*

{"compound": "C[C@H](NC(=O)C(=O)Nc1ccccc1Cl)C(=O)N[C@@H](CC(=O)O)C(=O)COC(=O)c1c(Cl)cccc1Cl [Example 58]", "pKi": 7.74}
{"compound": "C[C@H](NC(=O)C(=O)NC1CCCCC1)C(=O)N[C@@H](CC(=O)O)C(=O)COP(=O)(c1ccccc1)c1ccccc1", "pKi": 7.60}
{"compound": "C[C@H](NC(=O)C(=O)Nc1ccccc1C(C)(C)C)C(=O)N[C@@H](CC(=O)O)C(=O)COc1ccccc1F", "pKi": 7.15}
{"compound": "CC(C)[C@H](NC(=O)C(=O)Nc1ccccc1C(C)(C)C)C(=O)N[C@@H](CC(=O)O)C(=O)COc1c(F)c(F)cc(F)c1F", "pKi": 7.39}
{"compound": "C[C@H](NC(=O)C(=O)Nc1cccc2c1CCCC2)C(=O)N[C@@H](CC(=O)O)C(=O)COP(=O)(c1ccccc1)c1ccccc1 [Example 48]", "pKi": 7.66}
{"compound": "C[C@H](NC(=O)C(=O)Nc1cccc2c1CCCC2)C(=O)N[C@@H](CC(=O)O)C(=O)COP(=O)(c1ccccc1)c1ccccc1 [Example 61]", "pKi": 7.72}
{"compound": "C[C@H](NC(=O)C(=O)Nc1ccccc1F)C(=O)N[C@@H](CC(=O)O)C(=O)COC(=O)c1c(Cl)cccc1Cl", "pKi": 7.64}
{"compound": "C[C@H](NC(=O)C(=O)Nc1ccccc1-c1ccccc1)C(=O)N[C@@H](CC(=O)O)C(=O)COc1ccccc1F", "pKi": 7.38}
{"compound": "CC(C)[C@H](NC(=O)C(=O)Nc1cccc2ccccc12)C(=O)N[C@@H](CC(=O)O)C(=O)COc1c(F)c(F)cc(F)c1F", "pKi": 7.80}
{"compound": "CC(C)[C@H](NC(=O)C(=O)Nc1cccc2ccccc12)C(=O)N[C@@H](CC(=O)O)C(=O)COc1c(F)cccc1F", "pKi": 7.60}
{"compound": "Cc1cc(OCC(=O)[C@H](CC(=O)O)NC(=O)[C@@H](NC(=O)C(=O)Nc2cccc3ccccc23)C(C)C)cc(=O)o1", "pKi": 6.60}
{"compound": "C[C@H](NC(=O)C(=O)Nc1ccccc1-c1ccccc1)C(=O)N[C@@H](CC(=O)O)C(=O)COP(=O)(c1ccccc1)c1ccccc1", "pKi": 7.60}
{"compound": "CC(C)[C@H](NC(=O)C(=O)Nc1ccccn1)C(=O)N[C@@H](CC(=O)O)C(=O)COc1c(F)c(F)cc(F)c1F", "pKi": 6.73}
{"compound": "CC(C)[C@H](NC(=O)C(=O)Nc1cccc2ccccc12)C(=O)N[C@@H](CC(=O)O)C(=O)COP(=O)(c1ccccc1)c1ccccc1", "pKi": 7.96}
{"compound": "CC(C)[C@H](NC(=O)C(=O)Nc1ccccc1Cc1ccccc1)C(=O)N[C@@H](CC(=O)O)C(=O)COc1c(F)c(F)cc(F)c1F", "pKi": 7.09}
{"compound": "C[C@H](NC(=O)C(=O)Nc1ccccc1C(C)(C)C)C(=O)N[C@@H](CC(=O)O)C(=O)COP(=O)(c1ccccc1)c1ccccc1 [Example 47]", "pKi": 7.96}
{"compound": "CC(C)[C@H](NC(=O)C(=O)NCCc1ccccc1)C(=O)N[C@@H](CC(=O)O)C(=O)COc1c(F)c(F)cc(F)c1F", "pKi": 6.76}
{"compound": "CC(C)[C@H](NC(=O)C(=O)NCc1ccccc1)C(=O)N[C@@H](CC(=O)O)C(=O)COc1c(F)c(F)cc(F)c1F", "pKi": 6.90}
{"compound": "CC(NC(=O)C(NC(=O)OCc1ccccc1)C(C)C)C(=O)NC(CC(=O)O)C(=O)CF (stereo not drawn) [refer., Cbz-ValAlaAsp-CH2F, reference compound] (Cbz-Val-Ala-Asp-CH2F; configuration not given here)", "pKi": 6.23}
{"compound": "CCCCCCCc1ccc(NC(=O)C(=O)N[C@H](C(=O)N[C@@H](CC(=O)O)C(=O)COc2c(F)c(F)cc(F)c2F)C(C)C)cc1", "pKi": 7.23}
{"compound": "C[C@H](NC(=O)C(=O)Nc1cccc2c1CCCC2)C(=O)N[C@@H](CC(=O)O)C(=O)COc1c(F)c(F)cc(F)c1F", "pKi": 7.14}
{"compound": "C[C@H](NC(=O)C(=O)Nc1ccccc1I)C(=O)N[C@@H](CC(=O)O)C(=O)COC(=O)c1c(Cl)cccc1Cl [Example 38]", "pKi": 8.22}
{"compound": "C[C@H](NC(=O)C(=O)NCc1cccc2ccccc12)C(=O)N[C@@H](CC(=O)O)C(=O)COP(=O)(c1ccccc1)c1ccccc1", "pKi": 7.96}
{"compound": "CC(C)[C@H](NC(=O)C(=O)Nc1cccc2ccccc12)C(=O)N[C@@H](CC(=O)O)C(=O)COc1cccc2ccccc12", "pKi": 7.70}
{"compound": "CC(C)[C@H](NC(=O)C(=O)Nc1nc2ccccc2[nH]1)C(=O)N[C@@H](CC(=O)O)C(=O)COc1c(F)c(F)cc(F)c1F", "pKi": 5.84}
